subject of test: dopamine transporter (Rattus norvegicus, UniProt P23977)
Sequence (P23977 whole entry): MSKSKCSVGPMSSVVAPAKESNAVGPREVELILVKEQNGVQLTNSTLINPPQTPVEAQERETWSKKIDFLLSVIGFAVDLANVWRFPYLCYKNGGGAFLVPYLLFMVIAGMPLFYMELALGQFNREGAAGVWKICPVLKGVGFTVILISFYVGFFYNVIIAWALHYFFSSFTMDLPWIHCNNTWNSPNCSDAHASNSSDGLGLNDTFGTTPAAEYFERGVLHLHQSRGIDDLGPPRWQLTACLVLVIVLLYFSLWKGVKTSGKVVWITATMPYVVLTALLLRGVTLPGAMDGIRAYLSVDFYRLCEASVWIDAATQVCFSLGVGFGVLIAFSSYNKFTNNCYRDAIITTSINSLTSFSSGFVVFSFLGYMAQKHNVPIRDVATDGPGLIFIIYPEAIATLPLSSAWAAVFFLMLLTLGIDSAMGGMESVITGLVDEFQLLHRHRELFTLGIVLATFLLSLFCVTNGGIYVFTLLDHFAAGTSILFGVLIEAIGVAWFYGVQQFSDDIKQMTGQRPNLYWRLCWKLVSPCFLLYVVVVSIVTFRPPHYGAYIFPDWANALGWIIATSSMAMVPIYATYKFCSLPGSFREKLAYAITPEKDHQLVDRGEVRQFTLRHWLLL
test: biochemical
applied conditions: IC50 (nM) [3H]dopamine uptake, rat striatal synaptosomes
Provide the reported IC50 of each item.
One number for each entry, in nM.

COC(=O)C1CN(C)CCC1c1ccc(Cl)cc1 (single isomer, unassigned; (+)) [(+)-11]: 34.6

Record IC50 per entry; entries follow.
1. CCCC1CN(C)CCC1c1ccc(Cl)cc1 (single isomer, unassigned; (-)) [(−)-9]
2. CC(=O)OCC1CN(C)CCC1c1ccc(Cl)cc1 (single isomer, unassigned; (-)) [(−)-7]

1: 8.3; 2: 62.9

Record IC50 per entry; entries follow.
1. COC(=O)C1CN(C)CCC1c1ccc(Cl)cc1 (single isomer, unassigned; (-)) [(−)-3]
2. CCCC1CN(C)CCC1c1ccc(Cl)cc1 (single isomer, unassigned; (+)) [(+)-15]
3. CN1CCC(c2ccc(Cl)cc2)C(CO)C1 (single isomer, unassigned; (-)) [(−)-5]

85.2
23.2
49

---

subject of test: dopamine transporter (Rattus norvegicus, UniProt P23977)
test: biochemical
applied conditions: IC50 (nM) [3H]WIN 35,428 binding, rat striatal membranes
Rule for this label: satisfied means IC50 is less than 20 nM; not satisfied means IC50 is at least 20 nM.

Here's what some known entries look like.
COC(=O)C1CN(C)CCC1c1ccc(Cl)cc1 (single isomer, unassigned; (+)) [(+)-11]: not satisfied
CCCC1CN(C)CCC1c1ccc(Cl)cc1 (single isomer, unassigned; (+)) [(+)-15]: satisfied
CCCC1CN(C)CCC1c1ccc(Cl)cc1 (single isomer, unassigned; (-)) [(−)-9]: satisfied

Consider the compound COC(=O)C1CN(C)CCC1c1ccc(Cl)cc1 (single isomer, unassigned; (-)) [(−)-3] . Is its IC50 strictly less than 20 nM?
not satisfied

Consider the compound CC(=O)OCC1CN(C)CCC1c1ccc(Cl)cc1 (single isomer, unassigned; (-)) [(−)-7] . Is its IC50 strictly less than 20 nM?
not satisfied
